# measurement-target: AChE from Electrophorus electricus (eeAChE) (Electrophorus electricus, UniProt O42275)
# Construct: purchased Sigma–Aldrich (Steinheim, Germany)
# Sequence (O42275 24-633): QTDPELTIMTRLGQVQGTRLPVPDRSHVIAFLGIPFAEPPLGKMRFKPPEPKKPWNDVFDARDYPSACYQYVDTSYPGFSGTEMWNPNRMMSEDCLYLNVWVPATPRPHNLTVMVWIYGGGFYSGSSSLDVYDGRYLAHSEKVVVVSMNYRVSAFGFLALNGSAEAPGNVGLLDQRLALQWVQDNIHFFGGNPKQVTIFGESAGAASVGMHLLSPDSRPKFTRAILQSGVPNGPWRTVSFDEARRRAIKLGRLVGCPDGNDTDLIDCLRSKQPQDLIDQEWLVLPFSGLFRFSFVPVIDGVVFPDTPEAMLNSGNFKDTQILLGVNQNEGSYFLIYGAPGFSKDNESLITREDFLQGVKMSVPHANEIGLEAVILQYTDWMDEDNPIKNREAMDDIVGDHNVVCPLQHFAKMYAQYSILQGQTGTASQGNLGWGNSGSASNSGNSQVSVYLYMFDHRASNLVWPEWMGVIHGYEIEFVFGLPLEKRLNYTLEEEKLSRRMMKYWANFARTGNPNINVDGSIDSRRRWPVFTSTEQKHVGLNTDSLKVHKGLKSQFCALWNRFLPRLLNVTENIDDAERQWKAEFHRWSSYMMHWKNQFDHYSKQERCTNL
# test-protocol: biochemical
# assay-context: mean ± SEM of at least three experiments
Entries annotated with measured IC50
observed-property: IC50 (µM)

                            molecule_smiles  observed_property  unit_spec  quantitative_readout
0  O=C1c2ccccc2C(=O)N1CCCN1c2ccncc2Sc2ncccc21               IC50         µM                  4.26
1       C(#CCN1c2cccnc2Sc2cccnc21)CN1CCCCC1               IC50         µM                  8.31
